target: UniProt:P34972; details: HEK293, at 10 µM
Description: Maximum displacement of human recombinant CB2 receptor expressed in HEK293 cell membranes at 10 uM incubated for 90 mins by radioligand binding assay
Here the recorded Imax is given for each entry.
property.label: Imax (%)

• CCCC(C)(C)c1ccc2c(c1)OC(C)(C)[C@@H]1CC=C(C)C[C@@H]21 = 50
• CCS(=O)(=O)NCCCCCOc1ccc2ccccc2c1 = 23.7
• O=C(/C=C/C=C/c1ccc2c(c1)OCCO2)NC1CC1 = 26.5
• O=C(CCCCCOc1cccc2ccccc12)NC1CC1 = 27.8
• CCNC(=O)NCCCCCOc1ccc2c(c1)OCO2 = 22.6
• NC(=O)NCCCCCOc1cccc2ccccc12 = 4.6
• O=C(CCCCCOc1ccc2ccccc2c1)NCCO = 3.6

----------
target: Cannabinoid receptor 2 (Homo sapiens); settings: HEK293, at 10 µM
// label = t if Imax is not less than 40%, otherwise f

- CCOC(=O)CNC(=O)/C=C/C=C/c1ccc2ccccc2c1: t
- CCOC(=O)CNC(=O)/C=C/C=C/c1ccc2c(c1)OCCO2: t
- O=C(/C=C/C=C/c1ccc2c(c1)-c1ccccc1C2)NCCO: f
- CCNC(=O)NCCCCCOc1cccc2ccccc12: f
- CCS(=O)(=O)NCCCCCOc1ccc2c(c1)OCO2: f
- CCNC(=O)NCCCCCSc1ccc2ccccc2c1: t
- CCS(=O)(=O)NCCCCCOc1cccc2ccccc12: f
- O=C(/C=C/C=C/c1ccc2c(c1)-c1ccccc1C2)NC1CC1: f
- CCS(=O)(=O)NCCCCCSc1ccc2ccccc2c1: t
- CCNC(=O)NCCCCCOc1ccc2ccccc2c1: f
- O=C(/C=C/C=C/c1ccc2ccccc2c1)NC1CC1: t
- O=C(/C=C/C=C/c1ccc2ccccc2c1)NCCO: t
- O=C(CCCCCOc1ccc2ccccc2c1)NC1CC1: f
- O=C(CCCCCOc1cccc2ccccc12)NCCO: f
- NC(=O)NCCCCCOc1ccc2c(c1)OCO2: f
- CCOC(=O)CNC(=O)CCCCCOc1cccc2ccccc12: f
- CCOC(=O)CNC(=O)CCCCCOc1ccc2ccccc2c1: f

----------
# Ki per entry
biological target: Cannabinoid receptor 2 (Homo sapiens, UniProt P34972); test: Displacement of human recombinant CB2 receptor expressed in HEK293 cell membranes incubated for 90 mins by Cheng-Prusoff equation based analysis
Sequence (P34972 whole entry): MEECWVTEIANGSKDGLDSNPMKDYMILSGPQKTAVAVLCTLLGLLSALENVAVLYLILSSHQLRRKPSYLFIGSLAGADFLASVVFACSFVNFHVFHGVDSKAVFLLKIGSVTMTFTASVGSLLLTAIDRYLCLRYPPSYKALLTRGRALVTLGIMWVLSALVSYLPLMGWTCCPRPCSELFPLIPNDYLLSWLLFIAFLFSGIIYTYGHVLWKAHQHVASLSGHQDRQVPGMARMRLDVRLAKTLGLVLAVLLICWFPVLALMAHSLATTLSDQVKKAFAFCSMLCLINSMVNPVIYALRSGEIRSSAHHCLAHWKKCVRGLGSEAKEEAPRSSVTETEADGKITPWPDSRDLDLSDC
property.label: Ki

- CCCC(C)(C)c1ccc2c(c1)OC(C)(C)[C@@H]1CC=C(C)C[C@@H]21: 0.14 µM
- O=C(/C=C/C=C/c1ccc2ccccc2c1)NC1CC1: 0.81 µM
- CCOC(=O)CNC(=O)/C=C/C=C/c1ccc2ccccc2c1: > 10 µM
- O=C(/C=C/C=C/c1ccc2c(c1)-c1ccccc1C2)NC1CC1: > 10 µM
- CCNC(=O)NCCCCCOc1ccc2ccccc2c1: > 10 µM
- CCOC(=O)CNC(=O)CCCCCOc1cccc2ccccc12: > 10 µM
- O=C(/C=C/C=C/c1ccc2ccccc2c1)NCCO: 1.27 µM
- O=C(CCCCCOc1ccc2ccccc2c1)NCCO: > 10 µM
- CCS(=O)(=O)NCCCCCOc1ccc2c(c1)OCO2: > 10 µM
- CCNC(=O)NCCCCCOc1ccc2c(c1)OCO2: > 10 µM
- CCOC(=O)CNC(=O)CCCCCOc1ccc2ccccc2c1: > 10 µM
- CCNC(=O)NCCCCCOc1cccc2ccccc12: > 10 µM

----------
biological target: Cannabinoid receptor 1 (Homo sapiens); settings: HEK293, at 10 µM;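 further: radioligand binding on HEK293 cell membranes carrying recombinant human CB1, maximal displacement of the radioligand recorded after a 90 min incubation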
Sequence (P21554 whole entry): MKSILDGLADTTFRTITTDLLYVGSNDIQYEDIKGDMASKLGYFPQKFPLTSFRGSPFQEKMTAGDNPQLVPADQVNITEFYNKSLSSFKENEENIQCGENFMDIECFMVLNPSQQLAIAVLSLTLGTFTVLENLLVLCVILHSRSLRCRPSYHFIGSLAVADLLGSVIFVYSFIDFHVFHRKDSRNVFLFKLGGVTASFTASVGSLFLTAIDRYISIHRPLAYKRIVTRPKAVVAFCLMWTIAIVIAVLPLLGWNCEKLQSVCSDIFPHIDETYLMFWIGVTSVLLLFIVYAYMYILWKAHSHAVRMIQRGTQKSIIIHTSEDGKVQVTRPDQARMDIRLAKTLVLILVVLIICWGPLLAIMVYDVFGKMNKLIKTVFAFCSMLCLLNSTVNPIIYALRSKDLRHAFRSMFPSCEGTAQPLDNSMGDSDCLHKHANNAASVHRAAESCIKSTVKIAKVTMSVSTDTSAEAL
Description: Maximum displacement of human recombinant CB1 receptor expressed in HEK293 cell membranes at 10 uM incubated for 90 mins by radioligand binding assay
As shown below, each of these compounds has a reported Imax value.
property.label: Imax (%)

* CCOC(=O)CNC(=O)CCCCCOc1ccc2ccccc2c1 | 6.46
* CCS(=O)(=O)NCCCCCOc1ccc2ccccc2c1 | 11.9
* O=C(/C=C/C=C/c1ccc2c(c1)-c1ccccc1C2)NC1CC1 | 13.6
* CCOC(=O)CNC(=O)/C=C/C=C/c1ccc2ccccc2c1 | 2.24
* O=C(CCCCCOc1ccc2ccccc2c1)NC1CC1 | 44.8
* O=C(/C=C/C=C/c1ccc2c(c1)OCCO2)NC1CC1 | 6.18
* O=C(CCCCCOc1cccc2ccccc12)NC1CC1 | 24.7
* CCOC(=O)CNC(=O)/C=C/C=C/c1ccc2c(c1)OCCO2 | 4.77
* CCNC(=O)NCCCCCOc1cccc2ccccc12 | 18.5
* O=C(CCCCCOc1ccc2ccccc2c1)NCCO | 3.65
* O=C(/C=C/C=C/c1ccc2ccccc2c1)NC1CC1 | 18.5
* CCS(=O)(=O)NCCCCCOc1cccc2ccccc12 | 7.86
* CCNC(=O)NCCCCCSc1ccc2ccccc2c1 | 16.9
* NC(=O)NCCCCCOc1ccc2c(c1)OCO2 | 2.39
* O=C(CCCCCOc1cccc2ccccc12)NCCO | 27
* CCOC(=O)CNC(=O)CCCCCOc1cccc2ccccc12 | 27.7
* CCS(=O)(=O)NCCCCCOc1ccc2c(c1)OCO2 | 3.37
* NC(=O)NCCCCCOc1cccc2ccccc12 | 6.88
* CCOC(=O)CNC(=O)/C=C/C=C/c1ccc2c(c1)-c1ccccc1C2 | 5.47
* O=C(/C=C/C=C/c1ccc2c(c1)-c1ccccc1C2)NCCO | 0
* CCNC(=O)NCCCCCOc1ccc2ccccc2c1 | 9.27
* CCNC(=O)NCCCCCOc1ccc2c(c1)OCO2 | 3.38
* O=C(/C=C/C=C/c1ccc2ccccc2c1)NCCO | 4.91
* CCS(=O)(=O)NCCCCCSc1ccc2ccccc2c1 | 23.6
